Data provenance: patent US20220098591

- ASSAY TARGET: VEGF-A121 (Homo sapiens, UniProt P15692 SEQ:1-121)
- Sequence (P15692 other isoform, or with tags, fused parts or gaps): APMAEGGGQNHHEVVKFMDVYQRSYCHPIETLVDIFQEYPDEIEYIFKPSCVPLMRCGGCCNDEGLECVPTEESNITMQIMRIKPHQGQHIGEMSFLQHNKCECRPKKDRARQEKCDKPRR
- PROCEDURE DETAILS: competition; AlphaLISA, blocks KDR binding
- TEST SETTINGS: tags: glycan-biotinylated for SPR/FRET/AlphaLISA; Acro BioSystems, Biolegend; chain copies: 2 (stated); stem-loop
pIC50: −log10 of the molar value.
READOUT LABEL: pIC50

[[record]]
binder = "UAGGCCGCCUCCGCGCGGAGGGGUUUCAUUAUCCCGUUUGGCGGCUUU (ssRNA, all G 2'-F; all A,C,U 2'-OMe; 5' C6NH2; 3' idT (Tables 14-16 print it without the terminal U residues)) [Aptamer 26]"
numeric_result = 7.72

[[record]]
binder = "AGGCCGACCCGCGCGGAGGGGUUUCAUUAUCCCGUUUGUCGGCUU (ssRNA, all G 2'-F; A,C,U 2'-OMe; Sp3 joins the two parts (position 9); 5' C6NH2; 3' idT) [Aptamer 141]"
numeric_result = 8.49

